biological target: T1, human MSLN on OVCAR3 tumor cells (human, UniProt Q13421 296-598); assay: FACS, OVCAR3 cells
T1 construct: whole, on cells; also called human MSLN protein
T1 sequence (Q13421 other isoform, or with tags, fused parts or gaps): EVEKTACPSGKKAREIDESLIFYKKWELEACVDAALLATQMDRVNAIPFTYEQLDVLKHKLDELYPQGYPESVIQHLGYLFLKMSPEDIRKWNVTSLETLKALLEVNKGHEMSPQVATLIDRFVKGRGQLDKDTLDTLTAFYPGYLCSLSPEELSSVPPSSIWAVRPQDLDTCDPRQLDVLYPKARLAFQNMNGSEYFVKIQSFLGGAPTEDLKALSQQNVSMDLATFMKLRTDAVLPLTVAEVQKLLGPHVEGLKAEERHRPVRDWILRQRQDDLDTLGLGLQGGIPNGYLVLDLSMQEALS
METRIC: Maximum_MFI (MFI)
# value in MFI; strip the unit string

Looking for the measured Maximum_MFI of F2.23.12-H16 (scFv, not shown: small tags and cut ends, also called S009-F2.23.12 humanized antibody VH4 + VL4) scFv: EVQLVQSGAEVKKPGASVKVSCKASGYTFTNYWMHWVRQAPGQGLEWMGNINPSQGGPYYNERFRSRVTMTVDKSTSTAYMELSSLRSEDTAVYYCARPYYGSSYGYFDYWGQGTTVTVSSGGGGSGGGGSGGGGSDIQMTQSPSSLSASVGDRVTITCKASQDINKYIAWYQHKPGKAPKLLIHYTSELQPGVPSRFSGSGSGRDYTFTISSLQPEDIATYYCLQYANPLRTFGGGTKVEIK , can you help?
2920
